Catalogue of compounds with associated inhibition
- target_or_system: Large T antigen (Simian virus 40)
- assay_method_text: SV40 large T antigen inhibitors, biochemical (AID 1903)
- experimental_context: SV40 large T antigen ATPase/helicase inhibition assay; at 20 µM; hits give high values
The whole screen tested about 310,000 compounds, of which about 1,200 (0.39%) were called active. A selection follows. Entries with a potency or affinity are not part of this list.

Worked set:
> print(dat)
                                   compound     readout.value
1  COc1ccc(/C=N/NC(=O)c2cccc(Br)c2)cc1CN1CCOCC1  4.55% (inactive)
2  N#C[C@H]1C2OC2c2ccccc2N1C(=O)c1ccccc1 (some centres undefined)  3.71% (inactive)
3  Cc1c(Cl)c([N+](=O)[O-])nn1Cc1ccc(C(=O)N/N=C\c2ccccn2)o1  6.44% (inactive)

Prompt: Look up inhibition: O=C(Nn1cnnc1)C(Sc1ccccc1)c1ccccc1 (centres undefined)
Completion: 1.32% (inactive)
